- procedure_details: qHTS assay to test for compound auto fluorescence at 590 nm (red) in HEK293 cell free culture (AID 720683); further: on the % scale 0 is the no-effect control and ±100 the full control effect
- condition_notes: cell-free medium autofluorescence, Ex540/Em590 red; series mostly up to 91.3 µM
The source made the active and inactive calls. The call rests on the fitted dose curve; in most records, active means well fitted curve in the direction sought with a large enough effect in the repeat runs; inconclusive means weak or mixed curves; inactive means flat fitted curve, though single readings scatter.
readout_name: fluorescence, % of fluorescent control

compound | value_reported
CC(C)CCOC(=O)/C=C/c1ccccc1 | inactive
CCCCCCCC | inactive
CC(C)(C)CC(C)(C)c1ccc(Nc2ccc(C(C)(C)CC(C)(C)C)cc2)cc1 | 0.0404% [at 3.72 µM] (inactive)
CC1(C)CCC[C@]2(C)[C@H]3CC(=O)O[C@]3(C)CC[C@@H]12 | inactive
COc1cc(/C=C/c2ccccc2)oc(=O)c1 | inactive
NC[C@H]1O[C@H](O[C@H]2[C@H](O[C@@H]3O[C@H](CO)[C@@H](O)[C@H]3O)C(O)[C@H](N)C[C@@H]2N)[C@H](N)[C@@H](O)[C@@H]1O (some centres not stated) | 0.335% [at 18.6 µM] (inactive)
CCCC[P+](C)(CCCC)CCCC | inactive
CN(C)c1ccc(C(=C2C=CC(=[N+](C)C)C=C2)c2ccc(N(C)C)cc2)cc1 | inactive
C1CCC(SSC2CCCCC2)CC1 | inactive
OC[C@@H](O)[C@@H](O)CO | inactive
CCCCCCCCCCCC(=O)OCC(C)OC(=O)CCCCC(=O)O (configuration not stated) | inactive
Nc1ccc(NCCO)c([N+](=O)[O-])c1 | inactive
CC1(C)CCC[C@]2(C)[C@H]3CCO[C@]3(C)CC[C@@H]12 | inactive
Clc1nnc(Cl)c2ccccc12 | inactive
OC/C=C/CO | inactive
COC(C)=O | inactive
CCCCCC(C)OC(=O)COc1ccc(Cl)c2cccnc12 (configuration not stated) | inactive
CCC(=O)OC(=O)CC | inactive
C=Cc1cccc(C)c1 | inactive
CC(=O)[C@H]1CC[C@H]2[C@@H]3CCC4=CC(=O)CC[C@]4(C)[C@H]3CC[C@]12C | inactive
Sc1nc2ccccc2s1 | inactive
OCCN1CCN(CCCN2c3ccccc3Sc3ccc(C(F)(F)F)cc32)CC1 | inactive
CCCCC/C=C\C/C=C\CCCCCCCC(=O)O | inactive
CCC(C)(CCC(C)C)C(=O)[O][Sn]([CH3])([CH3])[O]C(=O)C(C)(CC)CCC(C)C (configuration not stated) | inactive
CN(C)C(=O)COC(=O)Cc1ccc(OC(=O)c2ccc(N=C(N)N)cc2)cc1 | inactive
C/C=C/C=C/COC(=O)C(C)C | inactive
C=CC(C)(CCC=C(C)C)OC=O (configuration not stated) | inactive
O=C(O)c1ccc2cc(C(=O)O)ccc2c1 | inactive
Cc1cc(C(C)(C)C)c(O)c(C)c1Cn1c(=O)n(Cc2c(C)cc(C(C)(C)C)c(O)c2C)c(=O)n(Cc2c(C)cc(C(C)(C)C)c(O)c2C)c1=O | inactive
CC(C)Cn1cnc2c(N)nc3ccccc3c21 | inactive
COc1ccc2cc1Oc1ccc(cc1)C[C@H]1c3c(cc4c(c3Oc3cc5c(cc3OC)CCN(C)[C@@H]5C2)OCO4)CCN1C | inactive
O=C(O)CN(CCN(CC(=O)O)CC(=O)O)CC(=O)O | inactive
O=C1CCc2ccc(OCCCCN3CCN(c4cccc(Cl)c4Cl)CC3)cc2N1 | inactive
c1cnccn1 | inactive
C[C@H]1NCc2cc(-c3ccc4c(=O)c(C(=O)O)cn(C5CC5)c4c3OC(F)F)ccc21 | inactive
O=S(=O)(O)c1ccc(Nc2nc(Nc3ccc(/C=C/c4ccc(Nc5nc(Nc6ccc(S(=O)(=O)O)cc6)nc(N(CCO)CCO)n5)cc4S(=O)(=O)O)c(S(=O)(=O)O)c3)nc(N(CCO)CCO)n2)cc1 | inactive
C=C(C)C(=O)OCCCCCCCCCC | inactive
CC(C)(C)c1ccc(C(O)CCCN2CCC(C(O)(c3ccccc3)c3ccccc3)CC2)cc1 (configuration not stated) | inactive
Cc1nc(-c2ccc(Cl)cc2)oc1COC(C)(C)C(=O)O | inactive
CCCC(=O)OCCc1ccccc1 | inactive
O=[N+]([O-])c1ccc(F)c(Cl)c1 | inactive
CC1(C)[C@@H](O)CC[C@]2(C)[C@H]3C(=O)C=C4[C@@H]5C[C@@](C)(C(=O)O)CC[C@]5(C)CC[C@@]4(C)[C@]3(C)CC[C@@H]12 | inactive
CCc1oc2ccccc2c1C(=O)c1cc(I)c(O)c(I)c1 | inactive
O=C1CCCCCCCCCCCCCCCO1 | inactive
CCn1c2ccccc2c2cc([N+](=O)[O-])ccc21 | inactive
CNc1ccc([N+](=O)[O-])cc1 | inactive
c1ccc(C(O[C@@H]2CCCN(CCc3ccc4c(c3)OCO4)C2)c2ccccc2)cc1 | inactive
